- target desc: cloned human P2Y1 receptors (Homo sapiens (Human))
- Sequence (P47900 whole entry): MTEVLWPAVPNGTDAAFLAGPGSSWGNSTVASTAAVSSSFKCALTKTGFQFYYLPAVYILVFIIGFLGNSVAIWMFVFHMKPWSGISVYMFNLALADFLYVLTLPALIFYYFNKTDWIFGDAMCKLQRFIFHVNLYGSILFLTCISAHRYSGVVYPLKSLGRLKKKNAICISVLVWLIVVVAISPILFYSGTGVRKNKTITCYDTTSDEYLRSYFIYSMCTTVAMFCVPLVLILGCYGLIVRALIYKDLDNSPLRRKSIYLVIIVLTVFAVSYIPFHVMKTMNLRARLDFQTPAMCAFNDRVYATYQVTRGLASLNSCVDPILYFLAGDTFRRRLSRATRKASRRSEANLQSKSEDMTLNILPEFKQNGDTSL
- experimental protocol: Binding Assay B - Scintillation Proximity Assay (SPA) for P2Y1 binding, [33P] 2MeS-ADP
- test context: SPA, 0.3 nM [33P] 2MeS-ADP, Cheng-Prusoff; read-out: P2Y1 Ki (nM) using binding assay B
value kind: Ki (nM)
Report the figure in nM without appending any unit label.

Examples with their reported Ki follow.
Input line: Please look at this molecule and report its Ki: CC1(C)CN(c2ccccc2NC(=O)Nc2ccc(OC(F)(F)F)cc2)c2c(O)cc(F)c(-c3cc(F)nc(F)c3)c21
Output line: 6.6

Input line: Look up and state reported Ki for CC1(C)CN(c2ccccc2NC(=O)Nc2nc3ccc(Br)cc3s2)c2c(O)ccc(Br)c21
Output line: 27.7

Input line: Find the measured Ki of CC1(C)CN(c2ccccc2NC(=O)Nc2ccc(OC(F)(F)F)cc2)c2c(O)c(F)cc(-c3ccccc3)c21 and report it.
Output line: 16.3

Input line: Using the record for Cc1cc(-c2ccc(O)c3c2C(C)(C)CN3c2ccccc2NC(=O)Nc2ccc(OC(F)(F)F)cc2)cnc1F , state its measured Ki.
Output line: 3.3

---
Input line: Name the recorded Ki of the molecule listed here: Cc1ccc2nc(-c3ccc(O)c4c3C(C)(C)CN4c3ccccc3NC(=O)Nc3ccc(OC(F)(F)F)cc3)oc2c1
Output line: 33.3

Input line: Please look at this molecule and report its Ki: CCC1(CC)CN(c2ccccc2NC(=O)Nc2ccc(C3CCN(CC(C)C)CC3)cc2)c2c(O)ccc(F)c21
Output line: 8.1

Input line: Give the reported Ki for this molecule. CCC1(CC)CN(c2ccccc2NC(=O)Nc2ccc(C3CCN(CC(C)C)CC3)cc2)c2c(O)ccc(C#N)c21
Output line: 9.5
